This collection of values is drawn from patent US6326378A.

Tested on: conscious dogs (beagles)
Assay: Effect on heart rate and arterial blood pressure of conscious dogs
Assay type: in vivo, dog
Conditions: edible oil + 2% DMSO, 24 mg/kg oral, 150 min; preliminary value 171

Structure notation | SBP
c1ccn2c(=Nc3ccncc3)snc2c1 | 179 mmHg

###

System: conscious dogs (beagles)
Experiment: Effect on heart rate and arterial blood pressure of conscious dogs
Assay type: in vivo, dog
Details: edible oil + 2% DMSO, 24 mg/kg oral, 210 min; preliminary value 66
Experimental: The behaviour of the dogs was normal. Effect on heart rate and on arterial blood pressure of conscious dogs after oral administration of 24 mg/kg of the compound of […]
Quantity measured: DBP (mmHg)

Structure notation | Recorded value
c1ccn2c(=Nc3ccncc3)snc2c1 | 68

###

Tested on: conscious dogs (beagles)
Experiment: Effect on heart rate and arterial blood pressure of conscious dogs
Format: in vivo, dog
Settings: edible oil + 2% DMSO, 24 mg/kg oral, 360 min; preliminary value 111

Structure notation | Uom | MAP
c1ccn2c(=Nc3ccncc3)snc2c1 | mmHg | 115

###

Test system: conscious dogs (beagles)
Experiment: Effect on heart rate and arterial blood pressure of conscious dogs
Assay type: in vivo, dog
Conditions: methyl cellulose 1% + 2% DMSO, 24 mg/kg oral, 360 min; preliminary value 114
Quantity measured: MAP (mmHg)

Structure notation | Quantity measured | Uom | Recorded value
c1ccn2c(=Nc3ccncc3)snc2c1 | MAP | mmHg | 110

###

Tested on: conscious dogs (beagles)
Experiment: Effect on heart rate and arterial blood pressure of conscious dogs
Format: in vivo, dog
Conditions: methyl cellulose 1% + 2% DMSO, 24 mg/kg oral, 120 min; preliminary value 114

Compound | MAP, mmHg
c1ccn2c(=Nc3ccncc3)snc2c1 [Example 2b] | 111

###

Tested on: conscious dogs (beagles)
Experiment: Effect on heart rate and arterial blood pressure of conscious dogs
Format: in vivo, dog
Details: methyl cellulose 1% + 2% DMSO, 24 mg/kg oral, 60 min; preliminary value 172

Structure notation | SBP [mmHg]
c1ccn2c(=Nc3ccncc3)snc2c1 | 178

###

Tested on: conscious dogs (beagles)
Assay: Effect on heart rate and arterial blood pressure of conscious dogs
Assay type: in vivo, dog
Settings: methyl cellulose 1% + 2% DMSO, 24 mg/kg oral, 360 min; preliminary value 83

Structure notation | HR
c1ccn2c(=Nc3ccncc3)snc2c1 | 75 beats/min

###

Tested on: conscious dogs (beagles)
Experiment: Effect on heart rate and arterial blood pressure of conscious dogs
Type: in vivo, dog
Settings: edible oil + 2% DMSO, 24 mg/kg oral, 300 min; preliminary value 66

Structure notation | Uom | DBP
c1ccn2c(=Nc3ccncc3)snc2c1 | mmHg | 65

###

Tested on: conscious dogs (beagles)
Experiment: Effect on heart rate and arterial blood pressure of conscious dogs
Assay type: in vivo, dog
Settings: methyl cellulose 1% + 2% DMSO, 24 mg/kg oral, 240 min; preliminary value 83
Quantity measured: HR

Structure notation | Recorded value
c1ccn2c(=Nc3ccncc3)snc2c1 | 74 beats/min

###

System: conscious dogs (beagles)
Experiment: Effect on heart rate and arterial blood pressure of conscious dogs
Assay type: in vivo, dog
Details: methyl cellulose 1% + 2% DMSO, 24 mg/kg oral, 240 min; preliminary value 172
Quantity measured: SBP (mmHg)

Structure notation | Recorded value
c1ccn2c(=Nc3ccncc3)snc2c1 | 167

###

Test system: conscious dogs (beagles)
Assay: Effect on heart rate and arterial blood pressure of conscious dogs
Assay type: in vivo, dog
Details: edible oil + 2% DMSO, 24 mg/kg oral, 30 min; preliminary value 111

Molecule | MAP
c1ccn2c(=Nc3ccncc3)snc2c1 [Example 2b] | 113 mmHg
